System: PI3K (Homo sapiens, UniProt P48736)
Construct: PI3 Kinase γ IC50; other: PI3 Kinase γ; other: PI3 Kinase γ isoform, fluorescence polarization
Sequence (P48736 whole entry, canonical isoform): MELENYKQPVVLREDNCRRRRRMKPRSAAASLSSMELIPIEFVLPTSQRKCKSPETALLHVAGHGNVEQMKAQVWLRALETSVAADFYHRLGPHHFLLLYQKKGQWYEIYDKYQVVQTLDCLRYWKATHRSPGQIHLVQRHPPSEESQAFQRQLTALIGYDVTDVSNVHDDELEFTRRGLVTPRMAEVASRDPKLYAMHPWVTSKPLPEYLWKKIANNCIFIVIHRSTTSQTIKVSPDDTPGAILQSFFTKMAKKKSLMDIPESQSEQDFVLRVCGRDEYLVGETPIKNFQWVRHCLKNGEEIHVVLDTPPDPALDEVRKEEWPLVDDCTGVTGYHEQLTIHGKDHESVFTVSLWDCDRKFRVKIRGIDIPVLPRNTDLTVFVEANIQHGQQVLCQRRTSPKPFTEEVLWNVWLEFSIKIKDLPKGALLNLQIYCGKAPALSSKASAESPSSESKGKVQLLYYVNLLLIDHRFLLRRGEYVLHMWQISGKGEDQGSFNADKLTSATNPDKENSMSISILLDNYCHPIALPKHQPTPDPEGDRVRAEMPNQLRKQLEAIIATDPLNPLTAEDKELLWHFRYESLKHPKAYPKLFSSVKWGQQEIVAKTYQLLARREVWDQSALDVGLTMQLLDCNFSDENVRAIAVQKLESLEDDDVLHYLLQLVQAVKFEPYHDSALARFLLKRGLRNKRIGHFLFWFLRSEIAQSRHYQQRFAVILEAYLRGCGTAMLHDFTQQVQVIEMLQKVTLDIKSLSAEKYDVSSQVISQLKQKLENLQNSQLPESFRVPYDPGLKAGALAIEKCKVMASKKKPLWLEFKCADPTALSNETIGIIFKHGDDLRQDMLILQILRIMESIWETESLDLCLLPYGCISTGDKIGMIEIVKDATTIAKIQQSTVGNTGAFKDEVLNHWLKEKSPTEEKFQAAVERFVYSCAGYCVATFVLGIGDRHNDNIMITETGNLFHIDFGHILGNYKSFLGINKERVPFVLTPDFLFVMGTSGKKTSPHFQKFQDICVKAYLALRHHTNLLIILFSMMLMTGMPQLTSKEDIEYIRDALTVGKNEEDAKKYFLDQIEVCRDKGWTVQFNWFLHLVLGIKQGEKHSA
Experimental Protocol: Fluorescence polarization assay for PI3K
Type: biochemical
Conditions: PI3 Kinase γ; read-out: PI3 Kinase γ IC50
Assay Endpoint: IC50

>>> df
                                test_smiles  endpoint_value
0  COC(=O)Nc1ccc(-c2nc(N3CC4CCC(C3)O4)c3cnn(C(C)(C)C)c3n2)cc1         > 10 µM
1  CC(C)(C)n1ncc2c(N3CC4CCC(C3)O4)nc(-c3ccc(NC(=O)NCCF)cc3)nc21         > 10 µM
2  CCn1ncc2c(N3CC4CCC(C3)O4)nc(-c3ccc(NC(=O)NC4CCN(C)CC4)cc3)nc21         > 10 µM
